# System: HOP-62
# method-description: NCI tumour cell line growth inhibition, 48 h
Active and inactive are the calls of the source. No stated cut-off is given here; in the data, active = GI50 up to about 1.1 µM and inactive = higher.
Permitted responses: yes (1) for active, no (0) for inactive

Reference set (5 entries):
{"molecule": "C=CCN1C(=O)CS/C1=N/NC(=O)C(O)(c1ccccc1)c1ccccc1", "assigned-category": "no (0)"}
{"molecule": "O=C(O)C(=Cc1ccc(-c2ccc([N+](=O)[O-])cc2)o1)C(=O)O", "assigned-category": "yes (1)"}
{"molecule": "CCOC(=O)NC(=O)c1cn(C2OC(COC(=O)CCCCCCCCC(=O)OCC3OC(n4cc(C(=O)NC(=O)OCC)c(=O)[nH]c4=O)C4OC(C)(C)OC34)C3OC(C)(C)OC32)c(=O)[nH]c1=O (stereo not drawn)", "assigned-category": "no (0)"}
{"molecule": "Cc1cc(N(CCC#N)CCC#N)ccc1/C=N/NC(=O)c1cc(Cl)ccc1O", "assigned-category": "no (0)"}
{"molecule": "COc1ccc(CC(=O)NCCc2ccc(OC)c(OC)c2OC)cc1", "assigned-category": "no (0)"}

Recorded test call requested for COc1ccc(C(SC2C(O)C(CO)OC2n2ccc(N)nc2=O)(c2ccccc2)c2ccc(OC)cc2)cc1 (stereo not drawn)
no (0)

Check "O=C(CC(=O)Nc1ccc(Cl)cc1)NNCC(=O)Nc1nc(-c2ccccc2)cs1" too.
no (0)

Next record, please: "CCOC(=O)C1=C(Cl)c2cccnc2C1=O"
no (0)

Next record, please: Cc1cccc(NC(=O)C(=O)C(C(=O)c2ccc3ccccc3c2)C2OC(=O)c3ccccc32)c1C (stereo not drawn)
no (0)

Item: "COCCN(CCOC)C(=O)COc1c2cc(C(C)(C)C)cc1Cc1cc(C(C)(C)C)cc(c1OCC(=O)N(CCOC)CCOC)Cc1cc(C(C)(C)C)cc(c1OCC(=O)N(CCOC)CCOC)Cc1cc(C(C)(C)C)cc(c1OCC(=O)N(CCOC)CCOC)Cc1cc(C(C)(C)C)cc(c1OCC(=O)N(CCOC)CCOC)C2"
no (0)

Now this one: "COc1ccccc1/C=C/c1nc2ccccc2o1"
no (0)

###

Consider the following molecules; for each one, report its GI50.
# Test system: SK-MEL-5
# method-description: NCI tumour cell line growth inhibition, 48 h
The source made the active and inactive calls. Cut-off read from the data, not from the text of the source: active = GI50 up to about 1.1 µM and inactive = higher.

{"molecule": "CCOC(=O)c1ccc(/N=C2/C(=S)N(c3ccc(C(=O)OCC)cc3)C(=N)N2/N=C/c2ccccc2)cc1", "GI50": "3.37 µM (inactive)"}

Could I get GI50 for every one of these entries?
1. CC(=O)NC(C)(C)C1CCC(C)CC1 (stereo unspecified)
2. OCCOCn1nc(-c2ccccc2)nc1-c1cnccn1
3. Cc1cc(N(CCC#N)CCC#N)ccc1/C=N/NC(=O)c1cc(Cl)ccc1O
4. O=C(CC(=O)Nc1ccc(Cl)cc1)NNCC(=O)Nc1nc(-c2ccccc2)cs1
5. CCN(CC)CCN(C(=O)c1ccc(F)cc1)c1ccccc1N

["> 100 µM (inactive)", "> 100 µM (inactive)", "> 100 µM (inactive)", "> 100 µM (inactive)", "> 10 µM (inactive)"]

###

# Tested on: K562
# method-description: NCI tumour cell line growth inhibition, 48 h
The source made the active and inactive calls. Cut-off read from the data, not from the text of the source: active = GI50 up to about 1.1 µM and inactive = higher.
property-label: GI50

{"compound-string": "O/N=C(\\C=N\\O)c1ccc2c(c1)Sc1ccccc1O2", "GI50": "22.1 µM (inactive)"}
{"compound-string": "Cn1ccc(C(=O)NCCN(CCNC(=O)c2ccn(C)c(=O)c2O)CCNC(=O)c2cccc(=O)n2O)c(O)c1=O", "GI50": "> 100 µM (inactive)"}
{"compound-string": "COc1ccc(CC(=O)NCCc2ccc(OC)c(OC)c2OC)cc1", "GI50": "> 100 µM (inactive)"}
{"compound-string": "S=C(N/N=C(\\C(=N/NC(=S)N1CCCCC1)c1ccccn1)c1ccccn1)N1CCCCC1", "GI50": "32.5 µM (inactive)"}

Each of the following entries comes with a recorded value; kindly state GI50 for each.
1. C=C=C(C)C(=O)N(C(C)C)C(C)C
2. C=CCn1c(=O)c(C)cn(/C(=C/C(=O)OCC)C(=O)OCC)c1=O
3. CN1CCC/C1=C1\C(=O)c2cccn2C1=O
4. O=c1cnn2c(n1)sc1ccc3ccccc3c12
5. CCOC(=O)c1ccc(/N=C2/C(=S)N(c3ccc(C(=O)OCC)cc3)C(=N)N2/N=C/c2ccccc2)cc1
6. C=CCN1C(=O)CS/C1=N/NC(=O)C(O)(c1ccccc1)c1ccccc1

["> 100 µM (inactive)", "4.19 µM (inactive)", "> 100 µM (inactive)", "> 100 µM (inactive)", "3.7 µM (inactive)", "> 10 µM (inactive)"]

###

For each record, write down the corresponding GI50.
# System: HCT-116
# method-description: NCI tumour cell line growth inhibition, 48 h
Activity calls are given as the source filed them. No stated cut-off is given here; in the data, active = GI50 up to about 1.1 µM and inactive = higher.

{"molecule": "Cc1cccc2c1NC(=O)/C2=N\\Nc1ccccc1[N+](=O)[O-]", "assay-system": "HCT-116", "GI50": "6.82 µM (inactive)"}
{"molecule": "O=C(O)c1ccc(S(=O)(=O)c2ccccc2)c([N+](=O)[O-])c1", "assay-system": "HCT-116", "GI50": "> 100 µM (inactive)"}
{"molecule": "COC(=O)C(COC(=O)/C=C/c1ccc(OC(C)=O)c(OC(C)=O)c1)OC(=O)/C=C/c1ccc(OC(C)=O)c(OC(C)=O)c1 (stereo not given)", "assay-system": "HCT-116", "GI50": "4.14 µM (inactive)"}

Could I get GI50 for every one of these entries?
1. Cc1cnc2nc(-c3sccc3C)cc(O)c2c1
2. COCCOC1=C(Cl)C(=O)c2c(O)ccc(O)c2C1=O

1. 3.33 µM (inactive)
2. 0.979 µM (active)

###

# Test system: OVCAR-8
# method-description: NCI tumour cell line growth inhibition, 48 h
Active and inactive are the calls of the source. Cut-off read from the data, not from the text of the source: active = GI50 up to about 1.1 µM and inactive = higher.
Task for the reader: assign each of the following compounds its reported GI50.

For every record below, what is its GI50?
1. CCC12C=CCN3CCC4(c5cc(C6(C(=O)OC)CCCCCc7c6[nH]c6ccccc76)c(OC)cc5N(C)C4C(O)(C(=O)OC)C1OC(C)=O)C32 (stereo not given)
2. N#CC(C#N)=C(N)/C(C#N)=C/c1ccc2[nH]ccc2c1

3.06 µM (inactive)
> 100 µM (inactive)

Please report GI50 for every entry that follows.
1. O=C(NCCCl)N(O)C(=O)Nc1ccccc1
2. COc1cc(C2c3cc4c(cc3OC(N3CCCCC3)C2C)OCO4)cc(OC)c1OC (stereo not given)
3. CC1(C)Cc2c(c3ccccc3c3nc4c(nc23)c2c(c3ccccc34)OC(C)(C)C2)O1
4. COc1ccc(-c2onc(-c3c(C)cc(C)cc3C)c2C2=NCCCN2)cc1
5. COP1(=O)NCc2ncccc2O1 (stereo not given)
6. CCN(CC)CC(=N)N(CC)c1ccccc1
7. O=[N+]([O-])c1cc(C2(N3CCCCC3)CCCCC2)sc1Br

1: > 100 µM (inactive); 2: 5.11 µM (inactive); 3: > 100 µM (inactive); 4: 58.9 µM (inactive); 5: > 100 µM (inactive); 6: > 100 µM (inactive); 7: 6.31 µM (inactive)

Hi, could you look up GI50 for each item in my list?
1. C(#Cc1ccccc1)SC1=C(c2ccccc2)S/C(=C(\SC#Cc2ccccc2)c2ccccc2)S1
2. CN(C)CCNC(=O)c1c(O)ccc2c1c1c(n2CCc2ccccc2)C(=O)c2ccccc2C1=O
3. CCOC(=O)c1c2ccccc2n2c(=O)n(-c3ccccc3)nnc12
4. COc1cc2cc(C(=O)N3CC(CCl)c4c3cc([N+](C)(C)Cc3ccc([N+](=O)[O-])n3C)c3ccccc43)[nH]c2c(OC)c1OC (stereo not given)

1. > 100 µM (inactive)
2. 8.36 µM (inactive)
3. > 100 µM (inactive)
4. 1.38 µM (inactive)

###

# Test system: 786-0
# method-description: NCI tumour cell line growth inhibition, 48 h
The source made the active and inactive calls. No stated cut-off is given here; in the data, active = GI50 up to about 1.1 µM and inactive = higher. Where a SMILES comes first, the peptide text is derived from it. The star is where a group is joined. Boc = CC(C)(C)OC(=O)*
property-label: GI50

Record excerpt, results attached:
{"compound": "[N-]=[N+]=Nc1ccc(CCN2CCN(c3cccc(C(F)(F)F)c3)CC2)cc1I", "property-label": "GI50", "result": "> 100 µM (inactive)"}
{"compound": "CC(NC(=O)C(NC(=O)OC(C)(C)C)C(C)C)C(=O)NCC(=O)O (stereo not drawn) (Boc-Val-Ala-Gly-OH; configuration not given here)", "property-label": "GI50", "result": "> 100 µM (inactive)"}

List the reported GI50 of each compound below.
1. Cc1cc(N(CCC#N)CCC#N)ccc1/C=C1N=C(/C=C/c2ccccc2)OC(=O)N\1
2. O=C1CN(c2ccc(Cl)cc2)C(=O)CN1CCN1CC(=O)N(c2ccc(Cl)cc2)CC1=O
3. CCNC1C2(CCCCC2)NC(=O)C12CCCCC2 (stereo not given)

1: 37.8 µM (inactive); 2: > 100 µM (inactive); 3: > 100 µM (inactive)
